Where these numbers come from: PubChem BioAssay AID1159580

Measured normalized growth accompanies every entry in the list below.
assay: chemical genetic growth profiling, strain panel (AID 1159580);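 further: tested at 20 µM; growth read once vehicle control cultures reached saturation at 30 °C; 1 = growth at the plate median or of vehicle wells; lower values mean less growth of the strain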; conditions: S. cerevisiae deletion strains, growth OD, locus YMR129W, hits give low values
The whole screen tested about 5,500 compounds, of which about 2,000 (36%) were called active. Not shown: some 18% with an inconclusive outcome. The list shows a part of the results.
Lab note: jot the number down without any unit.

Known normalized growth results, listed for orientation:
Query block: Given CC(=O)OCC(OC(C)=O)C(OC(C)=O)C(OC(C)=O)C(OC(C)=O)C(COC(C)=O)OC(C)=O (stereo unspecified) , state its recorded normalized growth.
Result block: 0.991

Query block: GET /values?readout=normalized growth&item= C#CCCCCCCCCCCCC(O)CC(O)CO (stereo unspecified)
Result block: 0.988

Query block: Please look up its normalized growth: COc1cc(OC)c2c(=O)c(-c3ccccc3)coc2c1
Result block: 0.999

Query block: I am curious: what normalized growth value has been reported for Nc1nc2ncc(=O)[nH]c2c(=O)[nH]1 ?
Result block: 0.972

Query block: For the molecule Nc1ccc(N=Nc2ccccc2)c(N)n1 , what normalized growth is on record?
Result block: 0.978

Further cases:
Query block: Consider the molecule C=C1CCC(C2CC(=O)OC2=O)C(=O)CCC2C1CC2(C)C (stereo unspecified) and give its measured normalized growth.
Result block: 1.01
